The measurements presented in this section are drawn from ChEMBL document CHEMBL1201861.

test system: SCC-9; assay: cells; type: functional, cell-based; details: Homo sapiens;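 also: Read-out is a cell viability assay, with values giving inhibition of cell growth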
Description: SANGER: Inhibition of human SCC-9 cell growth in a cell viability assay.
readout.type: IC50

>>> df
                                   molecule     result
0  COC(=O)[C@H](CCSC)NC(=O)c1ccc(NC[C@@H](N)CS)cc1-c1ccccc1  > 1020 nM
1  Cc1ccc(C(=O)Nc2ccc(CN3CCN(C)CC3)c(C(F)(F)F)c2)cc1C#Cc1cnc2cccnn12 [PONATINIB]   > 512 nM
2  O=C(NCCCNc1nc(Nc2cccc(NC(=O)N3CCCC3)c2)ncc1I)c1cccs1 [BX-795]  > 5000 nM

Pending molecule:
Lookup result for NC(=O)Nc1cc(-c2cccc(F)c2)sc1C(=O)N[C@H]1CCCNC1 [AZD-7762] ; measured IC50: 1990 nM
